- target-of-assay: human IL-17A (Homo sapiens, UniProt Q16552)
- Construct: purchased R&D Systems 7955-IL/CF
- experiment-description: IL-17A AlphaLISA competition assay (block of IL-17A binding to its receptor IL-17RA)
- test-context: mean IC50 (n≥2), block of IL-17A binding to IL-17RA
quantity-kind: IC50 (nM)

Item: Cc1cc(COC(=O)N[C@H](C(=O)Nc2cc(CN3C[C@@H](C(F)(F)F)NC3=O)ccn2)C2CCC(F)(F)CC2)nn1C | IC50: 3750

Item: CCc1conc1C(=O)NC(C(=O)Nc1cc([C@@H](CC)N2C[C@@H](C(F)(F)F)NC2=O)ccn1)C1CCC(F)(F)CC1 (stereo in doubt) | IC50: 31

a. CC(C)(C)OCC(NC(=O)OCc1ccccc1)C(=O)Nc1cc(CN2C[C@@H](C(F)(F)F)NC2=O)ccn1 (mixture of isomers)
b. CCc1nocc1C(=O)N[C@H](C(=O)Nc1cc(C(NC(=O)CCC(F)(F)F)C2CC2)ccn1)C1CCC(F)(F)CC1 (stereo partly drawn)
c. CC[C@H](c1ccnc(NC(=O)[C@@H](NC(=O)c2nonc2C)[C@H]2CC[C@H](C)CC2)c1)N1C[C@@H](C(F)(F)F)NC1=O
d. COCC(c1ccnc(NC(=O)[C@@H](NC(=O)c2conc2C(C)C)[C@H]2CC[C@H](C)CC2)c1)N1C[C@@H](C(F)(F)F)NC1=O (single isomer, unassigned) [Example 77]
Sort the compounds on IC50; start with the lowest figure. Show the ranking through the labels, in the order asked for. c, d, b, a

* * *

Target sequence: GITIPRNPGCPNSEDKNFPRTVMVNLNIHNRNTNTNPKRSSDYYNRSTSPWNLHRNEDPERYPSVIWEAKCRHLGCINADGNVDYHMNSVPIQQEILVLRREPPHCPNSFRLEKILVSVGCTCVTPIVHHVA
pIC50: −log10 of the molar value.
quantity-kind: pIC50

Look over these answered cases.
Item: C[C@H]1CC[C@H]([C@@H](NC(=O)c2nonc2C2CC2)C(=O)Nc2cc(C(NC(=O)CCC(F)(F)F)C3CC3)ccn2)CC1 (stereo partly drawn) [Example 235] | pIC50: 7.18

Item: COCC(NC(=O)CCC(F)(F)F)c1ccnc(NC(=O)[C@@H](NC(=O)c2nccn2C(C)C)C2CCC(F)(F)CC2)c1 (single isomer, unassigned) [Example 148] | pIC50: 5.08

Item: COC[C@H](c1ccnc(NC(=O)[C@@H](NC(=O)c2nonc2OCC(F)(F)F)C2CCC(F)(F)CC2)c1)N1C[C@@H](C(F)(F)F)NC1=O [Example 193] | pIC50: 6.98

Item: O=C(NC(C(=O)Nc1cc(CN2CC(C(F)(F)F)NC2=O)ccn1)C1CCC(F)CC1)c1nonc1C1CC1 (stereo not drawn) [Example 292] | pIC50: 6.98

Item: CC(C)n1nccc1C(=O)N[C@H](C(=O)Nc1cc(C(NC(=O)CCC(F)(F)F)C2CC2)ccn1)C(C1CC1)C1CC1 (single isomer, unassigned) [Example 41] | pIC50: 6.55

Item: Cc1nonc1C(=O)N[C@H](C(=O)Nc1cc(CN2C[C@@H](C(F)(F)F)NC2=O)ccn1)[C@@H](C)OC(C)(C)C [Example 128] | pIC50: 5.63

Item: CCc1nocc1C(=O)NC(C(=O)Nc1cc([C@@H](COC)N2C[C@@H](C(F)(F)F)NC2=O)ccn1)C1CCC(F)CC1 (single isomer, unassigned) [Example 286] | pIC50: 7.40

Item: COCC(c1ccnc(NC(=O)[C@@H](NC(=O)c2ncncc2C)[C@H]2CC[C@H](C)CC2)c1)N1C[C@H](C(F)(F)F)NC1=O (stereo partly drawn) [Example 135] | pIC50: 5.84

Item: CCn1nccc1C(=O)N[C@H](C(=O)Nc1cc(C[C@H]2C[C@@H](C(F)(F)F)NC2=O)ccn1)C1CCC(F)(F)CC1 [Example 223] | pIC50: 7.08

Item: CC(C)n1nccc1C(=O)N[C@H](C(=O)Nc1cc(C[C@H]2C[C@@H](C(F)(F)F)NC2=O)ccn1)C1CCC(F)(F)CC1 [Example 225] | pIC50: 6.98

A. CCn1nccc1C(=O)N[C@H](C(=O)Nc1cc(O[C@H]2C[C@@H](C(F)(F)F)NC2=O)ccn1)[C@H]1CC[C@H](C)CC1 [Example 322]
B. COC[C@H](c1ccnc(NC(=O)[C@@H](NC(=O)c2ccnn2C(C)C)C2CC(F)(F)C2)c1)N1C[C@@H](C(F)(F)F)NC1=O [Example 262]
Please compare: A and B . Report which one has the smaller pIC50 value. Give the label of your selection. A
(A: 6.09, B: 6.70)

I. CCC[C@H](c1ccnc(NC(=O)C(NC(=O)c2nocc2CC)C2CCC(F)(F)CC2)c1)N1C[C@@H](C(F)(F)F)NC1=O (stereo in doubt) [Example 158]
II. CC(C)n1nccc1C(=O)NC(C(=O)Nc1cc(C(NC(=O)CCC(F)(F)F)C2CC2)ccn1)C1CCC(F)(F)CC1 (stereo not drawn) [Example 48]
III. COC[C@H](c1ccnc(NC(=O)[C@@H](NC(=O)Cc2ccc(OC)nc2)C2CCC(F)(F)CC2)c1)N1C[C@@H](C(F)(F)F)NC1=O [Example 204]
Sort the compounds on pIC50; start with the lowest figure. Show the ranking through the labels, in the order asked for. II, III, I

1. CC1CCC(C(NC(=O)c2nonc2C2CC2)C(=O)Nc2cc(C(C)N3CC(C(F)(F)F)NC3=O)ccn2)CC1 (stereo not drawn) [Example 238]
2. Cc1cn([C@H](C)c2ccnc(NC(=O)[C@@H](NC(=O)c3nonc3C3CC3)C3CCC(F)(F)CC3)c2)c(=O)[nH]1 [Example 168]
3. CCn1nccc1C(=O)NC(C(=O)Nc1cc([C@@H](COC)N2C[C@@H](C(F)(F)F)NC2=O)ccn1)C1CCC(C)(F)CC1 (single isomer, unassigned) [Example 299]
Sort the compounds on pIC50; start with the lowest figure. Show the ranking through the labels, in the order asked for. 2, 3, 1

P. COCC(c1ccnc(NC(=O)[C@@H](NC(=O)c2nonc2C2CC2)C2CCC(F)(F)CC2)c1)[C@H]1C[C@@H](C(F)(F)F)NC1=O (single isomer, unassigned) [Example 186]
Q. CCc1ncoc1C(=O)NC(C(=O)Nc1cc(C[C@H]2C[C@@H](C(F)(F)F)NC2=O)ccn1)C1CCC(F)(F)CC1 (stereo in doubt) [Example 217]
R. Cn1nccc1C(=O)N[C@H](C(=O)Nc1cc(C(NC(=O)CCC(F)(F)F)C2CC2)ccn1)[C@H]1CC[C@H](C)CC1 (stereo partly drawn) [Example 236]
Sort the compounds on pIC50; start with the lowest figure. Show the ranking through the labels, in the order asked for. Q, P, R
(Q: 6.33, P: 7.16, R: 7.59)

* * *

Target chain: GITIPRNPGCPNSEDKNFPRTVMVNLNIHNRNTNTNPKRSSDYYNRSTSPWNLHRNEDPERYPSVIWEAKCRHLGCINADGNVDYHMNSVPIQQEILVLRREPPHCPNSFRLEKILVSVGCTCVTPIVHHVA
quantity-kind: IC50 (nM)

Look over these answered cases.
Item: CC[C@H](c1ccnc(NC(=O)[C@@H](NC(=O)c2nonc2C)C2CCC(F)(F)CC2)c1)N1C[C@@H](C(F)(F)F)NC1=O | IC50: 33

Item: Cn1nccc1C(=O)N[C@H](C(=O)Nc1cc(CN2C[C@@H](C(F)(F)F)NC2=O)ccn1)C(C1CC1)C1CC1 | IC50: 201

Item: [2H]C([2H])([2H])C([2H])([2H])n1ccc(C(=O)N[C@H](C(=O)Nc2cc([C@@H](COC)N3C[C@@H](C(F)(F)F)NC3=O)ccn2)C2CCC(F)(F)CC2)n1 | IC50: 816

Item: COCC(c1ccnc(NC(=O)[C@@H](NC(=O)c2nnnn2C)[C@H]2CC[C@H](C)CC2)c1)N1C[C@@H](C(F)(F)F)NC1=O (single isomer, unassigned) | IC50: 341

I. Cc1cnn(C)c1Cc1ccnc(NC(=O)[C@@H](NC(=O)c2ccnn2C(C)C)[C@H]2CC[C@H](C)CC2)c1
II. CC(C)(OC[C@H](NC(=O)c1nonc1C1CC1)C(=O)Nc1cc(CN2C[C@@H](C(F)(F)F)NC2=O)ccn1)C(F)(F)F
Consider I and II . Which of these has its IC50 at a higher number? Give the label of your selection. I

* * *

Target protein (sequence): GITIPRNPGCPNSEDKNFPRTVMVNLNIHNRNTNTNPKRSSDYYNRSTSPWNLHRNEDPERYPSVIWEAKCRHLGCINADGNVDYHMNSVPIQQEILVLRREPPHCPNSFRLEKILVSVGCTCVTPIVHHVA
quantity-kind: IC50 (µM)

Look over these answered cases.
Item: CCc1nocc1C(=O)N[C@H](C(=O)Nc1cc([C@@H](COC)N2C[C@@H](C(F)(F)F)NC2=O)ccn1)C1CCC(F)(F)CC1 | IC50: 0.047

Item: COC[C@H](c1ccnc(NC(=O)[C@@H](NC(=O)C(F)(F)c2cccc(C#N)c2)[C@H]2CC[C@H](C)CC2)c1)N1C[C@@H](C(F)(F)F)NC1=O (relative stereo) | IC50: 0.058

P. O=C(N[C@H](C(=O)Nc1cc(CN2C[C@@H](C(F)(F)F)NC2=O)ccn1)C1CCC(F)(F)CC1)c1nonc1C1CC1
Q. COCC(NC(=O)CCC(F)(F)F)c1ccnc(NC(=O)C(NC(=O)c2nonc2C2CC2)C2CCC(C)CC2)c1 (stereo not drawn)
Please compare: P and Q . Report which one has the smaller IC50 value. Give the label of your selection. Q
(Q: 0.038 µM, P: 0.141 µM)
